System: MS2 coat protein
experiment: apparent KD of MS2 coat protein; designed switch direction (-1 OFF switch, 1 ON switch): -1; higher = weaker reporter binding
conditions used: Eterna round: R95; input ligand: microRNA oligo, concentration not stated
parameter measured: apparent KD of MS2 coat protein
Please give the number followed by its unit.

Exercise: What measured apparent KD of MS2 coat protein goes with UGGUAACAUGAGGAUCACCCAUGUCAGGAUAUCAGUAAGAAUAGAUUAGAUUAGAAGAUGAGAAGGGACUAUAU [Excluse me! 5 - Jieux - Exclusion 1] (puzzle: Exclusion 1) ?
Key: 32 nM

Exercise: Could you do the same for GAUUAUGCGAGCUUUAGGGACAUGAGGAUCACCCAUGUUCGUCUUAUUAAUCUAGGUACGCUAACAUACCUAAAUCU [JMF 39] (puzzle: Sensor v3, turn-off variant 1) , please?
Key: 34.3 nM

Exercise: Check GAGAAGGUAGGAUAUACGAAUAAAUAGGGUAGUAAGAAGACACAUGAGGAUCACCCAUGUAGAAGGACCAAGAG [Mat - Exclusion 2 - Mod of my Tesla design - D37] (puzzle: Exclusion 2) too.
Key: 19.2 nM

Exercise: Ok, now AAUACUAACAGCUGACUGUUAGUACUGUAGGUUUGUGUUACAUGAGGAUCACCCAUGUCCUCAUAGGCUCGUCUUGU [Mat - Sensor v3 - Turn-off var 2 - D98] (puzzle: Sensor v3, turn-off variant 2)
Key: 322 nM

Exercise: Subsequent entry: CAUGAUCUUCGGAUCAUGUACAUGAGGAUCACCCAUGUUACGAGCUGAUUUUCAUACAAGCUUUUUGCUCGUCUUAU [Sensor v3 - Turn-off variant 1 - 30] (puzzle: Sensor v3, turn-off variant 1)
Key: 317 nM

Exercise: Next sequence: CAAAAGCUAGGAUAUUGAGGUGGGCACAUGAGGAUCACCCAUGUGGACCUCGAGCCUACGCAAGAAGGAGUAAAAU [Rioren] (puzzle: Exclusion 5)
Key: 13.1 nM

Exercise: Same read-out for CCUCCACAUGAGGAUCACCCAUGUCAGGAUAUCGUGUGUUUUUUUUCGGCCGCGCGUGCGAGAAGGGACGUCUU (puzzle: Exclusion 1) ?
Key: 19.1 nM

Exercise: Try this sequence too: AAUCAGCGAGGAUAUACAGAUUCUGGGUGCGGCUCGGCGAGACAUGAGGAUCACCCAUGUAGAAGGUGCUAGCC [Teoredre] (puzzle: Exclusion 2)
Key: 29.2 nM

Exercise: Another sequence: AAUAACAGAGGAUAUACUGUUUUAUGUGUUUGUUGUUUUAAACAUGAGGAUCACCCAUGUAGAAGGCUGAAUAA [JMF 19] (puzzle: Exclusion 2)
Key: 18.4 nM

Exercise: Check AGAAAUGCCCAUGGCCACAAGCUUCUUGCUUGUCUUACUACAUGAGGAUCACCCAUGUAACAUGGGCUCCUGAUAAU [Maonesra] (puzzle: Sensor v3, turn-off variant 2) too.
Key: 10.1 nM

Exercise: And then CUUCAAGCACCAGAGCUCACACUUAUACCUGCUCUGGUGACAUGAGGAUCACCCAUGUUUUUUGCCCGUCUUAUCUU [Sensor v3, turn-off variant 2 (MOD of Leso v.2)] (puzzle: Sensor v3, turn-off variant 2) , what is it?
Key: 276 nM

Exercise: Please do the same for GAUCUGAUAGGAUAUACAUGAGGAUCACCCAUGUGCGAGCUAGCGAAAGCUAGCUCAGGUAGAAGGGUCAGAUC [Ex3 dot plot directed v2] (puzzle: Exclusion 3) as well.
Key: 11.7 nM

Exercise: What do you have for UAAUAACAAGCAGGAUCCUACAUGAGGAUCACCCAUGUGCUCGUCUUAUAAAGUACUAUCACGAAAGUGAUAGUACU [Mat - Sensor v3 - turn-off var 1 - Eli Mod - D73] (puzzle: Sensor v3, turn-off variant 1) ?
Key: 71.9 nM

Exercise: Moving on to GGUCAAGAACAGAACCGCGCUGCCAUUGACCGCUCAUUUACAUGAGGAUCACCCAUGUUUUUUGCUUGUCUUGUUAC [Beusdieson] (puzzle: Sensor v3, turn-off variant 2)
Key: 89.9 nM

Exercise: Next up: UAGGUACAUGAGGAUCACCCAUGUGAGGAUAUAGUUGAAGAUUGCGAGAGGUUGAGGACUAGAAGGCACAGUGG [JR_Exclu1_Sub038] (puzzle: Exclusion 1)
Key: 63.5 nM

Exercise: Now try AAGAACGUAGGAUAUACAUGAGGAUCACCCAUGUGAGGAAGGAGUAGGAAGUGUGGAAGUAGAAGGACGGAGAG [JR_Exclu3_Sub076] (puzzle: Exclusion 3) .
Key: 35.4 nM

Exercise: How about AGUACUAACACGUAAGUGUUAGUACAAUAAGCUUGUGUUACAUGAGGAUCACCCAUGUCCUCAUAAGCUCGUCUUAU [Mat - Sensor v3 - Turn-off var 2 - D60] (puzzle: Sensor v3, turn-off variant 2) ?
Key: 77.6 nM

Exercise: Now this one: AGACGUCAAGUCAGGAUAUAGAGGCAAGUCCACCGCUAGAAGGGACAUGAGGAUCACCCAUGUAGGGUUUAGCU [Zainsoed] (puzzle: Brourd's mod of Exclusion 4)
Key: 157 nM

Exercise: What do you have for UAGAAGGUAGGAUAUACGAAUAAAUAGGGUAGGAAGAAGACACAUGAGGAUCACCCAUGUAGAAGGACCAAGAU [Mat - Exclusion 2 - Mod of my Tesla design - D34] (puzzle: Exclusion 2) ?
Key: 17.5 nM

Exercise: Could you do the same for AGUAACAGAGGAUAUACUGUUUUAUGUGUUUGUUGUUUUAAACAUGAGGAUCACCCAUGUAGAAGGCUGAAUAA [JMF 87] (puzzle: Exclusion 2) , please?
Key: 18.8 nM
